This collection of values is drawn from ChEMBL document CHEMBL3421623.

measurementTarget: Cytochrome P450 2A6 (Homo sapiens, UniProt P11509)
Sequence (P11509 whole entry): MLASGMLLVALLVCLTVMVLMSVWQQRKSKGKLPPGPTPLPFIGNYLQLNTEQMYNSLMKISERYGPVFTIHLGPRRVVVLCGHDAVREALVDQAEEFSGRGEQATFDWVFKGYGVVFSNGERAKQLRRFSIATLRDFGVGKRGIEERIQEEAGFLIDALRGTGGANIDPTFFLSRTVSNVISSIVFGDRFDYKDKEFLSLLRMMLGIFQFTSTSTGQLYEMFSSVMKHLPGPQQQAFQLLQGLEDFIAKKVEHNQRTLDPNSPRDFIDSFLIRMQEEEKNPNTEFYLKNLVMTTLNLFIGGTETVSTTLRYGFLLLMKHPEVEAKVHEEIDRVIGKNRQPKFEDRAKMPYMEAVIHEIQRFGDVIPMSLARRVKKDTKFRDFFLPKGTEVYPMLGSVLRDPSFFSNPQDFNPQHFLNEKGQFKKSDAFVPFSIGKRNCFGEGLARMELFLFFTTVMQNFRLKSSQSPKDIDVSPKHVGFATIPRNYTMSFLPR
protocolNotes: Inhibition of human recombinant CYP2A6 assessed as metabolism of coumarin to 7-hydroxycoumarin after 30 mins by fluorescence assay
measurementName: IC50 (µM)
# number only, unit µM dropped from output

Find IC50 (Cytochrome P450 2A6 (Homo sapiens, UniProt P11509)) for the entry CC/C(=C(/c1ccc(O)cc1)c1ccc(OCCN)cc1)c1ccccc1 (mixture of isomers)
6.37

* * *

measurementTarget: Estrogen receptor beta (Homo sapiens, UniProt Q92731)
Sequence (Q92731 whole entry): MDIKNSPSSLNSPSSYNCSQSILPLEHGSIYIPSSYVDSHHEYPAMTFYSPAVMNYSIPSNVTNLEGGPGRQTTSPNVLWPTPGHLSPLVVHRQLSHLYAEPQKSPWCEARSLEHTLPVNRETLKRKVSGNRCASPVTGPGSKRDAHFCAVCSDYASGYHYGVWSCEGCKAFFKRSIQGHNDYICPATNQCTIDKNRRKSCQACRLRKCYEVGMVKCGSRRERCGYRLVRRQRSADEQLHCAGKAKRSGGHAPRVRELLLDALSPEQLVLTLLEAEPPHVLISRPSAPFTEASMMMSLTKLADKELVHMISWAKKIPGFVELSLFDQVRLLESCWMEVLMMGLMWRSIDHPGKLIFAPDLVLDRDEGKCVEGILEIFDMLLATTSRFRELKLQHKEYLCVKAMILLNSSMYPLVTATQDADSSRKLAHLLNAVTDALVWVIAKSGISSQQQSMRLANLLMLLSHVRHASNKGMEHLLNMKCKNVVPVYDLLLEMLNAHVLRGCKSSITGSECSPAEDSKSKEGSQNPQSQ
protocolNotes: Displacement of fluorescein-labeled ES2 from human recombinant ERbeta receptor after 2 hrs by fluorescence polarization assay
pEC50: −log10 of the molar value.
Kind request: treat 7 as inclusive, so pEC50 at 7 or higher is yes (1), anything lower is no (0).

Use these answered entries as a reference point.
Could you tell me if the measured pEC50 of NCCOc1ccc(/C(=C2\CCc3ccccc32)c2ccc(O)cc2)cc1 (mixture of isomers) reaches 7 or more?
no (0)

Also check NCCOc1ccc(/C(=C(\Cn2cncn2)c2ccccc2)c2ccc(O)cc2)cc1 (mixture of isomers)
no (0)

What do we get for CC/C(=C(/c1ccc(N)cc1)c1ccc(OCCN)cc1)c1ccccc1 (mixture of isomers) ?
no (0)

More entries:
Test whether the compound CC/C(=C(/c1ccc(O)cc1)c1ccc(OCCN)cc1)c1ccc(F)cc1 (mixture of isomers) records pEC50 of 7 or higher.
yes (1)

How about this compound: CC/C(=C(/c1ccc(O)cc1)c1ccc(CCCN)cc1)c1ccccc1 (mixture of isomers)
yes (1)

What about NCCOc1ccc(/C(=C/c2ccccc2)c2ccc(O)cc2)cc1 (mixture of isomers) ?
yes (1)

* * *

Reported pEC50 values for a set of compounds
measurementTarget: Estrogen receptor (Homo sapiens)
Sequence (P03372 whole entry): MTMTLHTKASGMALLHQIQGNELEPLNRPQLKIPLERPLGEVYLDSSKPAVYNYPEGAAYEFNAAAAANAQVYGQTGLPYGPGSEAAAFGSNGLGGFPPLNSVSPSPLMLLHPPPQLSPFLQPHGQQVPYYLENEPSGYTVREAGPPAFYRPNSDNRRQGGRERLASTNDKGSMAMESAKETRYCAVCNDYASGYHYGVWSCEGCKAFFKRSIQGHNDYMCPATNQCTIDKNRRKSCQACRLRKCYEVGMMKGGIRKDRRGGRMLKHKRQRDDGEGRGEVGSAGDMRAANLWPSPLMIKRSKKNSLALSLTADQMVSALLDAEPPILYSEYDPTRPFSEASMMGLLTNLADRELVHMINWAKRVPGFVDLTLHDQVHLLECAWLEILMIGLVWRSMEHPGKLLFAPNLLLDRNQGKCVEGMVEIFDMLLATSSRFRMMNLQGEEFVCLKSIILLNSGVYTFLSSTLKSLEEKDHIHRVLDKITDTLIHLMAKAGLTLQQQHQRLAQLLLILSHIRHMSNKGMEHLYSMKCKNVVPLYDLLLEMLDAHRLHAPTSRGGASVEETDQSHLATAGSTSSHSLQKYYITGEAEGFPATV
protocolNotes: Displacement of fluorescein-labeled ES2 from human recombinant ERalpha receptor after 2 hrs by fluorescence polarization assay
Convention used: pEC50 is expressed as -log10 of the molar concentration.

Would you please look over these solved cases?
Which pEC50 value belongs to CCC/C(=C(/c1ccc(O)cc1)c1ccc(OCCN)cc1)c1ccccc1 (mixture of isomers) ?
6.42

Repeat for the following compound: NCCOc1ccc(/C(=C(\CCCl)c2ccccc2)c2ccc(O)cc2)cc1 (mixture of isomers)
6.58

Proceed to `NCCOc1ccc(C(=C(c2ccccc2)c2ccccc2)c2ccc(O)cc2)cc1`
6.19

# iterate: C/C(=C(/c1ccc(O)cc1)c1ccc(OCCN)cc1)c1ccccc1 (mixture of isomers)
6.17

Next: NCCOc1ccc(/C(=C(\Cn2cncn2)c2ccccc2)c2ccc(O)cc2)cc1 (mixture of isomers)
6.54

What do you have for `NCCOc1ccc(/C(=C(\Cn2cnnc2)c2ccccc2)c2ccc(O)cc2)cc1` ?
6.75

Follow-up item: NCCOc1ccc(/C(=C/c2ccccc2)c2ccc(O)cc2)cc1 (mixture of isomers)
5.98

Could you do the same for CC/C(=C(/c1ccc(N)cc1)c1ccc(OCCN)cc1)c1ccccc1 (mixture of isomers) , please?
6.56

Moving on to CC/C(=C(/c1ccc(O)cc1)c1ccc(OCCCN)cc1)c1ccccc1 (mixture of isomers)
7.67

Try CC/C(=C(/c1ccc(O)cc1)c1ccc(CCCN)cc1)c1ccc(O)cc1 (mixture of isomers) next.
5.72

More entries:
Request the reported pEC50 associated with NCCOc1ccc(/C(=C2\CCc3ccccc32)c2ccc(O)cc2)cc1 (mixture of isomers)
5.50

Further, for CC/C(=C(/c1ccc(O)cc1)c1ccc(CCCN)cc1)c1ccccc1 (mixture of isomers) ?
7.57
